All values here come from paper PMC8602723.

system: Hep G2 cells; assay: LDH assay (plasma membrane damage); format: cell-based; conditions: Homo sapiens, HepG2, 72 h, read-out: IC50 LDH assay
OBSERVABLE: IC50 (µM)

C=C(C)[C@@H]1CCC(C)=C[C@H]1c1c(O)cc(CCC)cc1O	21.2

----------
test system: Caco-2 cells; assay: MTT assay (mitochondrial metabolism); assay type: cell-based, human; conditions: Homo sapiens, Caco-2, 72 h, read-out: IC50 MTT assay
OBSERVABLE: IC50 (µM)

C=C(C)[C@@H]1CCC(C)=C[C@H]1c1c(O)cc(CCC)cc1O	46

----------
System: Caco-2 cells
Assay: MTT assay (mitochondrial metabolism)
Format: cell-based, human
Settings: Homo sapiens; Caco-2, 72 h exposure; 95% confidence interval in brackets; read-out: IC50 MTT assay
Excerpt: MTT assay is the most commonly used method for high-throughput identification of the antiproliferative effects of compounds on cultured cells and is indirectly correlated with mitochondria-dependent apoptosis progression[59]–[61]. The production of reducing equivalents such as NADH in metabolically active cells is an indicator of “cell redox activity”, indirectly reflecting the number of viable cells[60],[61] and the mitochondrial metabolic rate in cells[62],[63]. […]
pIC50: −log10 of the molar value.
OBSERVABLE: pIC50

C=C(C)[C@@H]1CCC(C)=C[C@H]1c1c(O)cc(CCCCC)cc1O	4.45
